target: recombinant full-length human prolyl endopeptidase (PREP) (Homo sapiens); construct: To recombinant full-length human prolyl endopeptidase (PREP, R&D-Systems, 4308-SE); purchased R&D-Systems 4308-SE; test: Biochemical human prolyl endopeptidase (PREP) assay with fluorescently labelled substrate; conditions: substrate Z-Gly-Pro-AMC 50 μM, 32° C., 60 min; some as mean values from multiple independent determinations
pIC50: −log10 of the molar value.
Metric name: pIC50

Previously resolved entries follow.
INSERT INTO results (molecule, tgt, readout_value) VALUES
  ('Cc1ccc(Cn2nc3n(c2=O)[C@H](C(=O)N2C[C@@H](O)[C@H](F)C2)CCC3)cc1 [Example 183]', 'recombinant full-length human prolyl endopeptidase (PREP) (Homo sapiens)', 6.96),
  ('O=C([C@@H]1CCCc2nn(Cc3ccc(C(F)(F)F)nc3)c(=O)n21)N1CCSC1 [Example 503]', 'recombinant full-length human prolyl endopeptidase (PREP) (Homo sapiens)', 8.70),
  ('O=C(C1C(C(F)(F)F)CCc2nn(Cc3ccc(C(F)(F)F)nc3)c(=O)n21)N1CC(F)C1 (racemic) [Example 304]', 'recombinant full-length human prolyl endopeptidase (PREP) (Homo sapiens)', 7.46),
  ('O=C(C1CCCc2nn(Cc3cccc(C(F)(F)F)c3)c(=O)n21)N1CCCC1 (racemic) [Example 19]', 'recombinant full-length human prolyl endopeptidase (PREP) (Homo sapiens)', 9.24);

1. O=C([C@@H]1CCCc2nn(Cc3ccnc(C(F)(F)F)c3F)c(=O)n21)N1CC[C@@H](F)C1 [Example 478]
2. O=C([C@@H]1CCCc2nn(Cc3ccc(F)cc3)c(=O)n21)N1CCC(F)(F)C1 [Example 451]
Ask: // returns 1 or 2 , whichever has the lower pIC50 Answer by stating the label of the chosen item.
Result: 1

P. O=C(C1CCCc2nn(Cc3cccc(C(F)(F)F)c3)c(=O)n21)N1CCC(F)(F)C1 (racemic) [Example 47]
Q. O=C([C@@H]1CCCc2nn(Cc3ccc(C(F)(F)F)c(F)c3)c(=O)n21)N1CC(F)C1 [Example 473]
Ask: // returns P or Q , whichever has the lower pIC50 Answer by stating the label of the chosen item.
Result: P

====

biological target: recombinant full-length human prolyl endopeptidase (PREP) (Homo sapiens, UniProt P48147); construct: To recombinant full-length human prolyl endopeptidase (PREP, R&D-Systems, 4308-SE); purchased R&D-Systems 4308-SE; assay: Biochemical human prolyl endopeptidase (PREP) assay with fluorescently labelled substrate; conditions: substrate Z-Gly-Pro-AMC 50 μM, 32° C., 60 min; some as mean values from multiple independent determinations
Sequence (P48147 whole entry): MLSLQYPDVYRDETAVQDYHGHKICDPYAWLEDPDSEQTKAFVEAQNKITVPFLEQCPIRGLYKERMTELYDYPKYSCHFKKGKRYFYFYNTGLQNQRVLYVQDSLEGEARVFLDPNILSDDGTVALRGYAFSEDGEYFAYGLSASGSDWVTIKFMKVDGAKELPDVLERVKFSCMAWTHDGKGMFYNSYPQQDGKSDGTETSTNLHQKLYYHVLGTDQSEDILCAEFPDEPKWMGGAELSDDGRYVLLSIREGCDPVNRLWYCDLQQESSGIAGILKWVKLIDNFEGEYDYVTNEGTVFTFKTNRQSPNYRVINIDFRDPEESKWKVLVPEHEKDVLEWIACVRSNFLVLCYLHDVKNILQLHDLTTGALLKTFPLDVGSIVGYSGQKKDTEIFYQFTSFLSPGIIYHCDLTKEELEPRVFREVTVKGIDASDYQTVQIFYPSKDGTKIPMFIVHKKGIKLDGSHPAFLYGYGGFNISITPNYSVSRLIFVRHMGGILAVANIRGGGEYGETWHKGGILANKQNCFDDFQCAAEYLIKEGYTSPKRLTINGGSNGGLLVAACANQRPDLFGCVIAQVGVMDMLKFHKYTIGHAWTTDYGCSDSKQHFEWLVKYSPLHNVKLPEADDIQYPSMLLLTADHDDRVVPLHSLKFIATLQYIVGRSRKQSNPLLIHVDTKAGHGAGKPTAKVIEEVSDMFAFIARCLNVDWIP
Metric name: IC50 (nM)

a. COc1ccc(Cn2nc3n(c2=O)[C@H](C(=O)N2CCCC2)CCC3)cn1 [Example 538]
b. O=C(C1C(C(F)(F)F)CCc2nn(Cc3ncc(Cl)cc3Cl)c(=O)n21)N1CC[C@H](F)C1 (mixture of isomers) [Example 282]
c. O=C(C1CCCc2nn(Cc3cccc(C(F)(F)F)c3)c(=O)n21)N1CC(O)C1 (single isomer, unassigned) [Example 98]
d. O=C(C1CC(C(F)(F)F)Cc2nn(Cc3ccnc(C(F)(F)F)c3F)c(=O)n21)N1CC[C@H](F)C1 (mixture of isomers) [Example 256]
Ask: Kindly provide a descending ordering of the above compounds based on their IC50. Answer format: the labels, ordered as requested.
Result: c, b, d, a
